- Test system: SNB-75
- ASSAY_OVERVIEW: NCI tumour cell line growth inhibition, 48 h
The source made the active and inactive calls. Rule as the data show it: active = GI50 up to about 1.1 µM and inactive = higher.
VALUE_TYPE: GI50

Below, each entry is followed by its recorded GI50 result.
1) CC(=O)Oc1ccc(/C=C/C(=O)OCCOC(=O)/C=C/c2ccc(OC(C)=O)c(OC(C)=O)c2)cc1OC(C)=O = 4.23 µM (inactive)
2) Cc1cc(N(CCC#N)CCC#N)ccc1C(/N=N/c1ccccc1)=N\NC(=O)c1cc(Cl)ccc1O = 77.6 µM (inactive)

Provide each entry's GI50 from the list below.
1. O=C(NC1CCCC1=O)c1ccccc1 (configuration not stated)
2. O=C(O)c1cc2ccccc2oc1=O
3. CC(Oc1ccc2cc(C(=O)c3ccccc3)c(=O)oc2c1)C(=O)O (configuration not stated)
4. O=C(CC(O)(C(F)(F)F)C(F)(F)F)c1cc(CC(=O)C(O)(C(F)(F)F)C(F)(F)F)cc(CC(=O)C(O)(C(F)(F)F)C(F)(F)F)c1
5. CCOc1ccc(NCC2CC/C(=C\C=C\c3ccccc3)C2=O)cc1 (configuration not stated)

31.5 µM (inactive)
> 100 µM (inactive)
> 100 µM (inactive)
1.91 µM (inactive)
23.2 µM (inactive)

----------
Provide the reported GI50 of each item.
- Tested on: SF-295
- ASSAY_OVERVIEW: NCI tumour cell line growth inhibition, 48 h
Calls of active or inactive are those of the source. Cut-off read from the data, not from the text of the source: active = GI50 up to about 1.1 µM and inactive = higher.

Answered examples (3):
1) CC(N)C(C)Cc1ccccc1 (configuration not stated) = > 100 µM (inactive)
2) CCOC(=O)c1c(Sc2ccc([N+](=O)[O-])cc2[N+](=O)[O-])nc2c3ccccc3ccn12 = 28.7 µM (inactive)
3) O=CC1C[C@@H](N2C(=O)O[C@@H](c3ccccc3)[C@H]2c2ccccc2)[C@@H]1COCc1ccccc1 (some centres not stated) = 17.3 µM (inactive)

Batch request: GI50 per item, same order as input.
1. Cc1cc2nnn(C3CCCCO3)c2cc1C (configuration not stated)
2. COc1ccc(OCC(=O)O)c2c1CCC(C)C2=O (configuration not stated)
3. O=C1C(=C(C(=O)c2ccccc2)C(=O)c2ccccc2)OC(c2ccccc2)=C1C(=O)c1ccccc1
4. CCOC(=O)CNc1c(OCc2ccccc2)c(=O)c1=O
5. COc1ccc2c(c1)OC1c3ccccc3OCC21 (configuration not stated)
6. CC(=O)Oc1ccc2c(c1)C(=O)c1nc(C)c(C)nc1C2=O
7. O=C(O)c1cc(Cl)cc(NC(=O)C(Cl)Cl)c1Cl
8. CCCCc1ccc(Nc2nc(Cl)c3ccn(C4CC(Oc5ccc(C)cc5)C(COc5ccc(C)cc5)O4)c3n2)cc1 (configuration not stated)

> 100 µM (inactive)
> 100 µM (inactive)
4.79 µM (inactive)
> 100 µM (inactive)
> 100 µM (inactive)
49.9 µM (inactive)
> 100 µM (inactive)
> 46.5 µM (inactive)

Tell me reported GI50 for `Nc1nc(N)c2ncn(Cc3ccccc3CCl)c2n1` , tested with SF-295.
> 100 µM (inactive)

----------
- Test system: RXF 393
- ASSAY_OVERVIEW: NCI tumour cell line growth inhibition, 48 h
The source made the active and inactive calls. Cut-off read from the data, not from the text of the source: active = GI50 up to about 1.1 µM and inactive = higher.
VALUE_TYPE: GI50

1) Cc1c(O)ccc2c(O)c(NC(=O)c3ccc4c(c3)CCC(C)(C)O4)c(=O)oc12 = > 100 µM (inactive)
2) CC(=O)O[C@H]1CCC2[C@@H]3CCC4NC(=O)C(C#N)C[C@]4(C)C3CC[C@@]21C (stereo partly drawn) = > 10 µM (inactive)
3) CCOC(=O)c1cccc(NC(=O)CCl)c1 = 3 µM (inactive)

// each molecule listed below needs its GI50
1. COc1ccc(/N=N/c2ccc3oc(=O)c(C(=O)Nc4ccccc4)cc3c2)cc1
2. CC(C(=O)n1nnc2ccccc21)N(c1ccccc1)c1ccccc1 (stereo not drawn)

["> 10 µM (inactive)", "> 100 µM (inactive)"]

Batch: GI50 for all items listed.
1. CN(C)CN1C(=O)S/C(=C2\C(=O)N(CN(C)C)c3ccccc32)C1=O
2. CCCCCCCCCC1(N=[N+]=[N-])C(=O)c2ccccc2N(C)C1=O (stereo not drawn)
3. CN(C)c1cccc2c(S(=O)(=O)NCCN)cccc12
4. N#Cc1[nH]c(=S)[nH]c1N
5. CSCCC(N)P(C)(=O)O (stereo not drawn)
6. C=C(C)C(=O)O[C@H]1C[C@@]23O[C@@H]2CCC(=C[C@H]2OC(=O)C(=C)[C@H]12)COC3O (stereo partly drawn)
7. COC(=O)c1cc(C(=CCC[C@H]2CC[C@@]3(C)C(CCC4C3CC[C@@]3(C)C4CC[C@@H]3C(C)CCCC(C)C)C2)c2cc(Cl)c(OC(=O)c3ccccc3)c(C(=O)OC)c2)cc(Cl)c1OC(=O)c1ccccc1 (stereo partly drawn)
8. CN(C)c1ccc(/C=N/C23CC4CC(CC(C4)C2)C3)cc1

19.9 µM (inactive)
22.6 µM (inactive)
41.1 µM (inactive)
> 100 µM (inactive)
> 100 µM (inactive)
25.1 µM (inactive)
> 10 µM (inactive)
> 100 µM (inactive)

Go through the items and report each one's GI50.
1. Cc1nc2cccc(F)c2c(=O)n1C1CCCCNC1=O (stereo not drawn)
2. COc1ccc(N2C(=O)C3c4[nH]c5ccccc5c4C4c5ccccc5CC4C3C2=O)cc1 (stereo not drawn)

1: > 10 µM (inactive); 2: > 100 µM (inactive)

// each listed molecule needs a value for GI50
1. CCOC(=O)N1C2C=C(C)C(ON2C(=O)c2ccccc2)C2C(C)C(=O)N21 (stereo not drawn)
2. c1ccc(C2CC(N3CCOCC3)=Nc3ccccc3N2)cc1 (stereo not drawn)
3. c1cc2nnc1SCCCSc1ccc(nn1)SCCCS2
4. OC1(c2cccs2)c2cccc(Cl)c2C(O)(c2cccs2)c2c(Cl)cccc21 (stereo not drawn)
5. N=C(N)SCc1ccc2c(c1)S(=O)(=O)c1ccccc1O2
6. Oc1ccc(/C=N/CC2CCCN3CCCCC23)cc1 (stereo not drawn)
7. O=C1OC(c2ccccc2)N/C1=C\c1ccc2c(c1)OCO2 (stereo not drawn)
8. CN1C(c2ccccc2)CC(O)CC1c1ccccc1 (stereo not drawn)

1: > 100 µM (inactive); 2: 78.5 µM (inactive); 3: 12.9 µM (inactive); 4: > 100 µM (inactive); 5: 21.2 µM (inactive); 6: 20 µM (inactive); 7: > 100 µM (inactive); 8: > 100 µM (inactive)

----------
- System: OVCAR-5
- ASSAY_OVERVIEW: NCI tumour cell line growth inhibition, 48 h
Activity calls are given as the source filed them. Rule as the data show it: active = GI50 up to about 1.1 µM and inactive = higher.
VALUE_TYPE: GI50

1. COc1cc(C2C(Cl)C(=O)N2NC(=O)c2ccc(N)cc2)ccc1O (configuration not stated) = 56.6 µM (inactive)

Give GI50 for each of the items listed below.
1. COc1cccc2c1/c(=C/c1ccc(N(C)C)cc1)c1cc(-c3ccccc3)[n+](C)n12
2. O=C(/C=C/c1ccc(Cl)cc1)c1ccccc(=O)c1O
3. CN1C(=O)C(=O)N2c3ccc(Cl)cc3C3(c4ccccc4)N=CC12O3 (configuration not stated)
4. O=NN(CCCl)C(=O)N[C@H]1CC[C@H](C(=O)O)CC1

1: 0.509 µM (active); 2: 6.34 µM (inactive); 3: 6.93 µM (inactive); 4: > 100 µM (inactive)

----------
- System: SNB-78
- ASSAY_OVERVIEW: NCI tumour cell line growth inhibition, 48 h
Active and inactive are the calls of the source. No stated cut-off is given here; in the data, active = GI50 up to about 1.1 µM and inactive = higher.
Please answer using one outcome listed in class 1 (active), class 0 (inactive)

Here's what some known entries look like.
1. COc1ccc2nc3c(c(NCCCN(C)C)c2c1)CCCC3 = class 0
2. COc1ccc(SS(=O)(=O)c2ccc(OC)cc2)cc1 = class 0
3. CC[C@@H]1C[C@@H]2CN3CCc4c([nH]c5ccc(OC)cc45)C(COC(=O)c4ccc(OC)c(OC)c4)(C2)C13 = class 0
4. COc1ccc(/C=C2\CCc3ccccc3C2=O)cc1OC = class 0
5. COc1ccc(C2=NN(c3nsc4ccccc34)C(=O)CC2)cc1 = class 0
6. COc1cc(C2C(Cl)C(=O)N2NC(=O)c2ccc(N)cc2)ccc1O (stereo unspecified) = class 0
7. NC(=O)c1csc(C2O[C@@H](COP(=O)(O)OP(=O)(O)OC[C@H]3OC(n4cnc5c(N)ncnc54)[C@H](O)[C@@H]3O)[C@H](O)[C@@H]2O)n1 (stereo partly specified) = class 0
8. O=c1c(NO)c([N+](=O)[O-])cnn1-c1ccccc1 = class 0
9. O=[N+]([O-])c1ccc(Cl)c(C2SCc3nc4ccccc4n32)c1 (stereo unspecified) = class 0
10. COC(=O)c1c(-c2cc(OC)c(OC)c(OC)c2)oc2ccccc2c1=O = class 0

How did this test come out for O=C(NC1CCCC1=O)c1ccccc1 (stereo unspecified) ?
class 0

How did this test come out for N#Cc1cn(C2OC(CO)C(O)C2O)c2ncnc(N)c12 (stereo unspecified) ?
class 1

Any idea what this test logged for `CC(=O)Nc1ccc(/C=C/C(=O)c2sc(-c3nc(C)c(C(=O)/C=C/c4ccc(NC(C)=O)cc4)s3)nc2C)cc1` ?
class 0

// param item: C[C@@H]1C(=O)CC2C(C)(C)CCC[C@]2(C)[C@@]12CC[C@]1(C=COC1)O2 (stereo partly specified) ; yields the recorded call
class 0

Look up the recorded call for CO[C@@]12[C@H](COC(N)=O)C3=C(C(=O)C(C)=C(N)C3=O)N1C[C@H]1[C@@H]2N1C (stereo partly specified) in this test.
class 0

# fetch the recorded call for C=C1CC(OC)(C(O)C(=O)N[C@H]2OCO[C@H]3C2O[C@H](C[C@@H](COC)OC)C(C)(C)C3OC)O[C@H](C)[C@@H]1C (stereo partly specified) here
class 1

Please let me know the test result on file for CN1C(=O)C(=O)N2c3ccc(Cl)cc3C3(c4ccccc4)N=CC12O3 (stereo unspecified) .
class 0

What is the recorded call for this molecule in the test? `O=c1[nH]cc(C(F)(C(F)(F)F)C(F)(F)F)c(=O)[nH]1`
class 0

Fill in: this test's call for `O=c1ccn([C@H]2CSC[C@@H](CO)C2)c(=O)[nH]1` is ___
class 0

Please indicate how the test categorized C=CC1(CC)/C(=N\O)C(CC)(CC)C(=O)N1O (stereo unspecified) .
class 0

Could you check what this test reported for `COc1c(Cl)cc(Cl)cc1S(=O)O` ?
class 0
